Source of measurements: the supplement of paper PMC12533247

- System: HSV-1 K26-GFP infected primary human skin cells
- Method Summary: % change of HSV-1 GFP signal vs untreated infected cells; higher = less antiviral inhibition
- Recorded Conditions: 0.7407 µM; cell type: primary dermal fibroblasts; donor: 4; time (h post infection): 48
Measured Endpoint: % change of HSV-1 GFP signal
Answer format: value, then unit.

Compound | Measured Endpoint | Result
CC(C)c1cnn2c(NCc3ccccc3-n3cccn3)nc(OC3CCCNC3)nc12 (stereo not drawn) | % change of HSV-1 GFP signal | -34.7%
Nc1ccn([C@@H]2O[C@H](CO)[C@@H](O)C2(F)F)c(=O)n1 | % change of HSV-1 GFP signal | -99.7%
O=C(Nc1ccc([N+](=O)[O-])cc1Cl)c1cc(Cl)ccc1O [Niclosamide] | % change of HSV-1 GFP signal | -63.1%
Cc1cccc(C)c1N(CC(=O)Nc1ccc(-c2ncon2)cc1)C(=O)C1CCS(=O)(=O)CC1 | % change of HSV-1 GFP signal | -84.4%
Cc1nc(N(C)C(=O)Cc2ccc(-c3ccccn3)cc2)sc1S(N)(=O)=O | % change of HSV-1 GFP signal | -91.2%
CC1(C)CC(=O)c2c(C(F)(F)F)nn(-c3ccc(C(N)=O)c(N[C@H]4CC[C@H](O)CC4)c3)c2C1 | % change of HSV-1 GFP signal | -99.6%
COc1ccc(-c2nc(N3CCOCC3)c3sc(CN(C)c4ncc(C(=O)NO)cn4)cc3n2)cn1 [Fimepinostat] | % change of HSV-1 GFP signal | -9.92%

Attention now shifts to the item below.
Recorded % change of HSV-1 GFP signal (compound O=C(/C=C\n1cnc(-c2cc(C(F)(F)F)cc(C(F)(F)F)c2)n1)NNc1ccccn1 [Verdinexor] ): -15.2%
